Values compiled from PubChem BioAssay (NCI).

# System: RPMI-8226 leukemia
# test: NCI tumour cell line growth inhibition, 48 h
quantity name: TGI

{"smiles input": "CCOC(=O)c1nc2ccc(C(F)(F)F)cc2nc1NCc1ccc(F)cc1", "quantity name": "TGI", "test result": "> 100 µM"}
{"smiles input": "O=C1Nc2cc(-c3ccc(O)cc3)ccc2/C1=C/c1ccc[nH]1", "quantity name": "TGI", "test result": "> 20.3 µM"}
{"smiles input": "COc1cc2c(cc1OC)C(Cc1cc(Br)c(OC)c(OC)c1)=[N+](C)CC2", "quantity name": "TGI", "test result": "> 100 µM"}
{"smiles input": "CCCCc1n(Cc2ccc3ccccc3n2)cc[n+]1Cc1ccc2ccccc2c1", "quantity name": "TGI", "test result": "1.36 µM"}
{"smiles input": "NC1=CC(=O)C(=O)c2ccccc21", "quantity name": "TGI", "test result": "53.2 µM"}
{"smiles input": "COc1cc2ccnc(-c3n[nH]c4cc(OC)c(OC)cc34)c2cc1OC", "quantity name": "TGI", "test result": "> 100 µM"}
